- System: Fibroblast
- Measurement description: Incucyte cell viability with human fibroblast; also: unitless GR value; below 1 slowed growth and below 0 cell loss
- Assay type: toxicity, cell-based
- Protocol conditions: 6 h, 10 µM, compound concentration 10 uM, replicate number 2, timepoint 6 hours
Property name: Growth Rate

See these solved cases before continuing.
- Compound: "CNCCN1CCC(c2cc(CN(C)C(=O)c3cccc(Oc4ccccc4)c3)ccn2)CC1"
  Target: "Fibroblast"
  Val: 0.98
- Compound: "CC[S+]([O-])c1nc(-c2cccc(OCc3ccccc3)c2)cc(C(F)(F)F)n1 (centres undefined)"
  Target: "Fibroblast"
  Val: -0.73
- Compound: "O=C(O)c1ccccc1S(=O)(=O)NCCCCN1C(=O)c2cccc3cccc(c23)C1=O"
  Target: "Fibroblast"
  Val: 0.71
- Compound: "Brc1c(N=C2NCCN2)ccc2nccnc12.O=C(O)C(O)C(O)C(=O)O"
  Target: "Fibroblast"
  Val: 0.7
- Compound: "Cc1ccccc1C(=O)Nc1ccc(C(=O)N2CCCC(N(C)C)c3ccccc32)cc1.Cl (centres undefined)"
  Target: "Fibroblast"
  Val: -0.65
- Compound: "COc1cc2nc(N3CCN(C(=O)COc4c(OC)cccc4C(C)C)CC3)nc(N)c2cc1OC.Cl.Cl"
  Target: "Fibroblast"
  Val: -0.55

The value of Growth Rate measured for the compound "CN(C(=O)c1ccccc1)c1cc(N(C)c2ccc3c(c2)CCc2ccc(C(=O)NCCN4CCOCC4)cc2C3=O)ccc1F" turned out to be -0.35

The value of Growth Rate measured for the compound "CCOc1ccc(Cc2nc3cc(C(=O)N(CC)CC)ccc3n2CC2CCCCC2)cc1" turned out to be 0.61

The value of Growth Rate measured for the compound "N=C(N)NCCC[C@@H](NC(=O)C(c1ccccc1)c1ccccc1)C(=O)NCc1ccc(CNC(N)=O)cc1.O=C(O)C(F)(F)F.O=C(O)C(F)(F)F" turned out to be 0.45

###

- Tested on: HEK-293T
- Measurement description: Incucyte cell viability with HEK293T; also: unitless GR value; below 1 slowed growth and below 0 cell loss
- Format: toxicity, cell-based
- Protocol conditions: human, 24 h, 10 µM, compound concentration 10 uM, replicate number 1, timepoint 24 hours
Property name: Growth Rate
A bare number is all that is needed in reply.

See these solved cases before continuing.
- Molecule: "CC(C)NCC(O)COc1cccc2[nH]ccc12 (centres undefined)"
  Target: "HEK-293T"
  Growth Rate: 0.82
- Molecule: "Cc1cc(C)cc(C(=O)NOCCCCCC(=O)NO)c1"
  Target: "HEK-293T"
  Growth Rate: 0.15

The value of Growth Rate measured for the molecule "COc1c(C)cc(NC(=O)c2nn(Cc3ccc(F)cc3)c3c2CN(C(=O)c2ccc[nH]2)C[C@]3(C)C(N)=O)cc1C" turned out to be 0.15

The value of Growth Rate measured for the molecule "CC(=O)NCC(=O)N1[C@@H]2CC[C@H]1c1ccc(Nc3ncc(C(F)(F)F)c(NC4CCC4)n3)cc12" turned out to be -0.31

The value of Growth Rate measured for the molecule "N#Cc1c(Oc2cccc(OS(=O)(=O)CCCC(F)(F)F)c2)cccc1C(F)(F)F" turned out to be 0.06

###

- Tested on: HEK-293T
- Measurement description: Incucyte cell viability with HEK293T; also: unitless GR value; below 1 slowed growth and below 0 cell loss
- Type: toxicity, cell-based
- Protocol conditions: human, 24 h, 10 µM, compound concentration 10 uM, replicate number 1, timepoint 24 hours
*1 amine or outer side, *2 acyl side, *3 side chain or, on linkers, in order; H or OH if unused. Where a SMILES comes first, the peptide text is derived from it. Bridges are numbered along the chain shown (N, C = ends). X1 = O=C(CCC[*:2])[*:1]
Property name: Growth Rate
A bare number is all that is needed in reply.

See these solved cases before continuing.
- Molecule: "C[C@@](Cc1c[nH]c2ccccc12)(NC(=O)Nc1ccc([N+](=O)[O-])cc1)C(=O)NCC1(c2ccccn2)CCCCC1"
  Val: -0.26
- Molecule: "Cc1ccccc1-c1cc(N2CCN(C)CC2)ncc1N(C)C(=O)C(C)(C)c1cc(C(F)(F)F)cc(C(F)(F)F)c1"
  Val: 0.5
- Molecule: "CC[S+]([O-])c1nc(-c2cccc(OCc3ccccc3)c2)cc(C(F)(F)F)n1 (configuration not stated)"
  Val: -0.13
- Molecule: "CC[C@H](C)[C@@H]1NC(=O)[C@H](Cc2ccc(OC)cc2)NC(=O)CCCSC[C@@H](C(=O)N2CCC[C@H]2C(=O)N[C@@H](CC(C)C)C(=O)NCC(N)=O)NC(=O)[C@H](CC(N)=O)NC(=O)[C@H](CCC(N)=O)NC1=O [CARBETOCIN] (Y(Me)IQNCPLG-NH2; linker N-5 via X1)"
  Val: 0.89
- Molecule: "C=CCNc1ncnc2ccc(Br)cc12"
  Val: 0.91
- Molecule: "CCCN(CCc1cccs1)[C@H]1CCc2c(O)cccc2C1"
  Val: 0.99

Now look at this entry.
The value of Growth Rate measured for the molecule "Cc1ccc2c(c1CCC(=O)O)CC[C@@H](NS(=O)(=O)c1ccc(Cl)cc1)C2" turned out to be 0.94

###

- Test system: U2OS
- Measurement description: Incucyte cell viability with U2OS; also: unitless GR value; below 1 slowed growth and below 0 cell loss
- Assay type: toxicity, cell-based
- Protocol conditions: human, 6 h, 10 µM, compound concentration 10 uM, replicate number 1, timepoint 6 hours
Property name: Growth Rate
A bare number is all that is needed in reply.

See these solved cases before continuing.
- Structure smiles: "CCC(=O)NC[C@@H]1C[C@H]1c1cccc2c1CCO2"
  Growth Rate: 0.85
- Structure smiles: "Cc1cc(=O)n(C)c2cc(N3C(=O)CC[C@H](NS(=O)(=O)CC(C)C)[C@H]3c3ccc(Cl)cc3)ccc12"
  Growth Rate: 0.78
- Structure smiles: "N#Cc1c(N)nc(SCc2csc(-c3ccc(Cl)cc3)n2)c(C#N)c1-c1ccc(OCCO)cc1"
  Growth Rate: 0.52
- Structure smiles: "CCN1C(=CC(C)=O)Sc2ccc(OC)cc21"
  Growth Rate: 0.65
- Structure smiles: "CCOC(=O)c1c(/C(C#N)=C\\N)c2ccc(Cl)c(Cl)c2n1C"
  Growth Rate: 0.29

Assay U2OS, sample "O=S(=O)(c1ccccc1)N(CC(F)(F)F)c1ccc(C(O)(C(F)(F)F)C(F)(F)F)cc1" , Growth Rate read: 0.74

Assay U2OS, sample "N=C(N)NCCC[C@H](NC(=O)COCC(c1ccccc1)c1ccccc1)C(=O)O.O=C(O)C(F)(F)F" , Growth Rate read: 0.54

Assay U2OS, sample "CN(C)CCCOc1ccc(-c2cc(NCCCn3cccn3)nc(S(C)(=O)=O)n2)cc1" , Growth Rate read: 0.22

Assay U2OS, sample "COc1cc(OC)cc(C(=O)NNC(=O)Nc2cccc3ccccc23)c1" , Growth Rate read: 0.36

###

- System: Fibroblast
- Measurement description: Incucyte cell viability with human fibroblast; also: unitless GR value; below 1 slowed growth and below 0 cell loss
- Assay type: toxicity, cell-based
- Protocol conditions: 18 h, 10 µM, compound concentration 10 uM, replicate number 2, timepoint 18 hours
Entries and their Growth Rate values follow.
A bare number is all that is needed in reply.

See these solved cases before continuing.
- Compound: "COc1c(C)cc(NC(=O)c2nn(Cc3ccc(F)cc3)c3c2CN(C(=O)c2ccc[nH]2)C[C@]3(C)C(N)=O)cc1C"
  Growth Rate: 0.32
- Compound: "CC(C)Oc1ccc(-c2nc(-c3cccc4c3CC[C@@H]4NCCO)no2)cc1C#N [OZANIMOD]"
  Growth Rate: -0.49

The value of Growth Rate measured for the compound CNC(=O)c1nn(C)c2c1C(C)(C)Cc1cnc(Nc3ccc(N4CCN(C)CC4)cc3)nc1-2 [MILCICLIB] turned out to be 0.23

The value of Growth Rate measured for the compound "O=C(Nc1cc(-c2cn[nH]c2)ccc1N1CCOCC1)c1ccc(-c2ccc3ncccc3c2)o1" turned out to be 0.89

The value of Growth Rate measured for the compound "O=C(Nc1cc(C(F)(F)F)ccc1N1CCN(Cc2ccccn2)CC1)c1ccc(-c2ccncc2)o1" turned out to be 0.16

The value of Growth Rate measured for the compound "Cc1cc(O)c(-c2ccc([C@@H](C)CN(C)C)cc2)c2c1[nH]c(=O)c1sccc12" turned out to be -0.3

The value of Growth Rate measured for the compound CS(=O)(=O)c1ccc(C(=O)Nc2ccc(Cl)c(-c3ccccn3)c2)c(Cl)c1 [VISMODEGIB] turned out to be 0.59

The value of Growth Rate measured for the compound O=S(=O)(c1ccccc1)c1cnc2c(N3CCNCC3)cccc2c1 [INTEPIRDINE] turned out to be 0.94

The value of Growth Rate measured for the compound "Cc1cnc(-c2cc(N3CCN(C(=O)CCS(C)(=O)=O)CC3)ncc2Cl)c(C)c1" turned out to be 0.71

###

- Tested on: Fibroblast
- Measurement description: Incucyte cell viability with human fibroblast; also: unitless GR value; below 1 slowed growth and below 0 cell loss
- Assay type: toxicity, cell-based
- Protocol conditions: 12 h, 10 µM, compound concentration 10 uM, replicate number 1, timepoint 12 hours
Property name: Growth Rate
A bare number is all that is needed in reply.

- Compound: "COCCCN1CCC(NC(=O)c2cc(Cl)c(N)c3c2OCC3)CC1 [PRUCALOPRIDE]"
  Property name: "Growth Rate"
  Val: 0.6
- Compound: "CC(C)C[C@H](CO)Nc1nc(S[C@@H](C)c2ccccc2)nc2nc(N)sc12"
  Property name: "Growth Rate"
  Val: 0.47

The value of Growth Rate measured for the compound "COc1cc(Br)c(S(=O)(=O)Nc2ccc(C(F)(F)F)c(O[C@@H]3CCN(C)C3)c2)cc1OC" turned out to be -0.19

The value of Growth Rate measured for the compound "Cc1ccccc1-c1cc(N2CCN(C)CC2)ncc1N(C)C(=O)C(C)(C)c1cc(C(F)(F)F)cc(C(F)(F)F)c1" turned out to be 0.63

The value of Growth Rate measured for the compound "CNC(=O)[C@H]1O[C@@H](n2cnc3c(NCc4cccc(I)c4)ncnc32)[C@H](O)[C@@H]1O" turned out to be 0.45

The value of Growth Rate measured for the compound "CN(C(=O)c1ccccc1)c1cc(N(C)c2ccc3c(c2)CCc2ccc(C(=O)NCCN4CCOCC4)cc2C3=O)ccc1F" turned out to be -0.68
